Test: in vivo
Conditions: C57BL/6, mouse, ip
Where no end group is shown, it is not given here.

>  <Substance>
Ac-WDLYFEIVW-NH2 [Peptide A05]

>  <level at 20 min, ng/mL>
165

$$$$
>  <Substance>
Ac-PMKFDVWDLYFEIVW-NH2 [Peptide A02]

>  <level at 20 min, ng/mL>
315

$$$$
>  <Substance>
Ac-WDLYFEIVWE [Peptide A06]

>  <level at 20 min, ng/mL>
7770

$$$$
>  <Substance>
H-ERMEFDVWDLYFEIVW-NH2 [Peptide A09]

>  <level at 20 min, ng/mL>
67

$$$$
